- Assay explanation: Healthy volunteer study of single and multiple-dose BTX 1503 5% Solution (BTX.2017.001): pharmacokinetics
- Format: in vivo, human (healthy volunteers)
- Condition details: human, in vivo, 225 mg CBD/day, Cohort 4, without the outlier subject; read-out: mean CBD trough level on Day 15
Measure: concentration at 15 study day (ng/mL)
Give just the number in ng/mL; leave the unit off.

Ask: Item under review: C=C(C)C1CCC(C)=CC1c1c(O)cc(CCCCC)cc1O (stereo not shown) . Reported concentration at 15 study day?
Result: 1.16

###

- Assay explanation: Healthy volunteer study of single and multiple-dose BTX 1503 5% Solution (BTX.2017.001): pharmacokinetics
- Assay type: in vivo, human (healthy volunteers)
- Condition details: human, in vivo, after QD dosing, Day 1
Measure: Tmax (h)
Give just the number in h; leave the unit off.

Ask: Item under review: C=C(C)C1CCC(C)=CC1c1c(O)cc(CCCCC)cc1O (stereo not shown) . Reported Tmax?
Result: 12

###

- Assay explanation: Healthy volunteer study of single and multiple-dose BTX 1503 5% Solution (BTX.2017.001): pharmacokinetics
- Format: in vivo, human (healthy volunteers)
- Condition details: human, in vivo, topical or ocular; Cohort 1: 37.5 mg CBD/day, 1 mL BTX 1503 5% QD, topical, Day 1, plasma CBD; read-out: mean Cmax after the first dose
Measure: Cmax (ng/mL)
Give just the number in ng/mL; leave the unit off.

Ask: Item under review: C=C(C)C1CCC(C)=CC1c1c(O)cc(CCCCC)cc1O (stereo not shown) . Reported Cmax?
Result: 0.309

###

- Assay explanation: Healthy volunteer study of single and multiple-dose BTX 1503 5% Solution (BTX.2017.001): pharmacokinetics
- Assay type: in vivo, human (healthy volunteers)
- Condition details: human, in vivo, 225 mg CBD/day, Cohort 4, one outlier; read-out: CBD trough level on Day 15, outlier subject
Measure: concentration at 15 study day (ng/mL)
Give just the number in ng/mL; leave the unit off.

Ask: Item under review: C=C(C)C1CCC(C)=CC1c1c(O)cc(CCCCC)cc1O (stereo not shown) . Reported concentration at 15 study day?
Result: 5.99

###

- Assay explanation: Healthy volunteer study of single and multiple-dose BTX 1503 5% Solution (BTX.2017.001): pharmacokinetics
- Assay type: in vivo, human (healthy volunteers)
- Condition details: human, in vivo, 225 mg CBD/day, Cohort 4, 225 mg CBD/day, multiple dose phase, all subjects; read-out: mean CBD trough level on Day 15
Measure: concentration at 15 study day (ng/mL)
Give just the number in ng/mL; leave the unit off.

Ask: Item under review: C=C(C)C1CCC(C)=CC1c1c(O)cc(CCCCC)cc1O (stereo not shown) . Reported concentration at 15 study day?
Result: 2.11

###

- Assay explanation: Healthy volunteer study of single and multiple-dose BTX 1503 5% Solution (BTX.2017.001): pharmacokinetics
- Assay type: in vivo, human (healthy volunteers)
- Condition details: human, in vivo, all cohorts, study Day 8, seven days after initial dosing; read-out: Levels of CBD (below the limits of quantitation)
Measure: concentration at 7 days

Ask: Item under review: C=C(C)C1CCC(C)=CC1c1c(O)cc(CCCCC)cc1O (stereo not shown) [CBD] . Reported concentration at 7 days?
Result: < 0.2 ng/mL

###

- Assay explanation: Healthy volunteer study of single and multiple-dose BTX 1503 5% Solution (BTX.2017.001): pharmacokinetics
- Format: in vivo, human (healthy volunteers)
- Condition details: human, in vivo, topical or ocular; Cohort 3: 112.5 mg CBD/day, 3 mL BTX 1503 5% QD, topical, Day 1, plasma CBD; read-out: mean Cmax after the first dose
- Protocol: The pharmacokinetics (PK) of single and multiple-dose administration of BTX 1503 5% Solution were evaluated in a healthy volunteer study. In this study, BTX 1503 5% Solution was applied as a single dose either QD or BID (12 hrs apart) on Day 1 followed by a 6-day washout period, then either QD or BID for 14 days (Day 8 to Day 21). […]
Measure: Cmax
Put down the number, then write its unit next to it.

Ask: Item under review: C=C(C)C1CCC(C)=CC1c1c(O)cc(CCCCC)cc1O (stereo not shown) [CBD] . Reported Cmax?
Result: 0.626 ng/mL
